# assayed system: human MAP4K4 kinase domain (Homo sapiens (Human), UniProt O95819)
# Sequence (O95819 25-289): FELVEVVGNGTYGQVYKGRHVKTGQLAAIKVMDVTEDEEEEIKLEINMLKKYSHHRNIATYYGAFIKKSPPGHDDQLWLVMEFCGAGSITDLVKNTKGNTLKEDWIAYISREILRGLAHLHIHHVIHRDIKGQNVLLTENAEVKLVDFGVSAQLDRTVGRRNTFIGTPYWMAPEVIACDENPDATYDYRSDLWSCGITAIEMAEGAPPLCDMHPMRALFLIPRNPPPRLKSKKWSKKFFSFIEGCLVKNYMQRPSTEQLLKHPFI
# assay remarks: MAP4K4 kinase activity, CisBio HTRF Transcreener ADP assay
# Assay type: biochemical
# condition info: ATP at Km (10 μM), 0.5 nM kinase domain, 2 h; read-out: MAP4K4

molecule	IC50
COCCOc1ccc(-c2cn(-c3ccccc3)c3nc[nH]c(=O)c23)cc1	≤ 100 nM
NCC(=O)Nc1ccc(-c2cn(-c3ccccc3)c3nc[nH]c(=O)c23)cc1	≤ 100 nM
CN(C)CCNC(=O)c1cccc(-c2cn(-c3ccccc3)c3nc[nH]c(=O)c23)c1	> 1000 nM
O=C(Nc1ccc(-c2cn(-c3ccccc3)c3nc[nH]c(=O)c23)cc1)N1CCC(O)C1 (racemic)	≤ 100 nM
CCOC(=O)c1ccc(-c2cn(-c3ccccc3)c3c(=O)[nH]cnc23)cc1	> 1000 nM
O=c1[nH]cnc2c(-c3ccc(OCC(O)CN4CCOCC4)cc3)cn(-c3ccccc3)c12 (centres unmarked)	100 to 1000 nM
CN1CCN(CC(O)COc2ccc(-c3cn(-c4ccccc4)c4nc[nH]c(=O)c34)cc2)CC1=O (centres unmarked)	≤ 100 nM
O=c1[nH]cnc2c1c(-c1ccc(OCC3CNC3)cc1)cn2-c1ccccc1	≤ 100 nM
NCc1ccc(-c2cn(-c3ccccc3)c3nc[nH]c(=O)c23)cc1	100 to 1000 nM
CNC(=O)c1ccc(-n2cc(-c3ccccc3)c3c(=O)[nH]cnc32)cc1	> 1000 nM
CC(C)(O)COc1ccc(-c2cn(-c3ccccc3)c3c(=O)[nH]cnc23)cc1	> 1000 nM
CNCC(=O)Nc1ccc(-c2cn(-c3ccccc3)c3nc[nH]c(=O)c23)cc1	≤ 100 nM
CC(C)(O)CCOc1ccc(-c2cn(-c3ccccc3)c3nc[nH]c(=O)c23)cc1	≤ 100 nM
NCc1cccc(-c2cn(-c3ccccc3)c3nc[nH]c(=O)c23)c1	100 to 1000 nM
